- Tested on: UACC-257 melanoma
- experiment.notes: NCI tumour cell line growth inhibition, 48 h; in the data active = GI50 below about 0.43 µM; inactive = the rest
Just give me one of these, please: t for active, f for inactive

compound: COc1ccccc1OCC(O)CO (stereo not drawn)
class.assignment: f

compound: COc1cc([N+](=O)[O-])c2ncccc2c1O
class.assignment: f

compound: CN1C=CN(Cc2ccc(-c3ccccn3)nc2)[CH-]1.CN1C=CN(Cc2ccc(-c3ccccn3)nc2)[CH-]1.[Au+3]
class.assignment: f

compound: O=C(O)CCN1C(=O)/C(=C/C(Cl)=C/c2ccccc2)SC1=S
class.assignment: f

compound: Cc1cc(I)cc(CN(C)CCCCN2CCCC2)c1O
class.assignment: f

compound: O=C(O)C(O)C(O)C1[O][Sb][O]C1CO (stereo not drawn)
class.assignment: f

compound: ClCc1ccc(Cn2cnc3ncnc(Cl)c32)cc1
class.assignment: f

compound: CCN(CC)c1ccc(/C=N\NC(=O)c2cccc(Nc3ccnc(C(F)(F)F)c3)c2)c(O)c1
class.assignment: t

compound: Cc1cc(C#Cc2ccccc2)ccc1-n1c(/C=C/c2ccc(O)cc2)nc2ccccc2c1=O
class.assignment: f

compound: NC(=O)c1ccc(-c2c3ccccc3cc3c2ccc2ccccc23)cc1
class.assignment: f

Hey, what did the test say about CC(=O)OCC1OC(O[C@@H]2C[C@H]3C(C)(C)[C@H](OC(C)=O)CC[C@]3(C)[C@H]3CC[C@@H]4[C@]5(CC[C@@]4(C)[C@@]32C)O[C@@H]([C@H](O)C(C)(C)O)C[C@@H]5C)C(O)C(O)C1O (stereo partly drawn) ?
f

Hey, what did the test say about CCOc1ccc(N2C(N)=NC(N)=NC2(C)C)cc1 ?
f

----------
# key: entry, value: TGI
- Tested on: HCC-2998 colon
- experiment.notes: NCI tumour cell line growth inhibition, 48 h

Consider the following illustrative entries.
molecule: O=C(NNc1ccc([N+](=O)[O-])cc1)C1OC(CO)C(O)C1O (stereo not drawn)
assay.system: HCC-2998 colon
TGI: > 100 µM
//
molecule: COc1ccccc1OCC(COC(=O)Nc1ccc(C)cc1)OC(=O)Nc1ccc(C)cc1 (stereo not drawn)
assay.system: HCC-2998 colon
TGI: 35.3 µM

In the following, a different molecule is considered.
Determine its reported TGI: CCCCCCCCSC(SCCCCCCCC)=C1C(=O)N(c2ccccc2)N=C1C
> 100 µM

----------
# key: entry, value: TGI
- Test system: SW-620 colon
- experiment.notes: NCI tumour cell line growth inhibition, 48 h

Consider the following illustrative entries.
compound: Cc1cc(C(C)(C)C)c(OCCCN2CCOCC2)c(C(C)(C)C)c1
TGI: 32.3 µM

compound: COc1ccc(CNc2cnc3cc(N)ccc3n2)cc1OC
TGI: > 100 µM

compound: Clc1cccc(C2SCc3nc4ccccc4n32)c1Cl (stereo not drawn)
TGI: 30.8 µM

Determine its reported TGI: Cc1ccc2c(=O)c3c(O)c4c(cc3n(C)c2c1)OC(C)(C)C=C4
> 10 µM

Determine its reported TGI: COc1cccc(C2c3cc4c(cc3OC(N3CCOCC3)C2C)OCO4)c1 (stereo not drawn)
16.7 µM

Determine its reported TGI: O=C(O)c1c(Cl)c(Cl)c(Cl)c(Cl)c1-c1c2cc(I)c(=O)c(I)c-2oc2c(I)c(O)c(I)cc12
79.1 µM

----------
- System: HOP-92 NSCLC
- experiment.notes: NCI tumour cell line growth inhibition, 48 h
# key: entry, value: TGI

compound: O=c1oc2ccccc2cc1-c1nc2ccccc2s1
measured.endpoint: TGI
result: 22.3 µM
--
compound: CC(CN(C)C)C(O)(c1ccccc1)c1ccccc1 (stereo not given)
measured.endpoint: TGI
result: > 100 µM

Determine its reported TGI: O=C(O)c1oc2ccc([N+](=O)[O-])c3c2c1CCC3
> 100 µM

Determine its reported TGI: Clc1ccc(CCN2CCOCC2)c(Cl)c1
> 100 µM

Determine its reported TGI: C[C@@H]1CC2(N=CCS2)[C@]2(O)O[C@@H]3C[C@@]4(C)[C@H](C[C@H]3O[C@@H]2O1)C[C@H]1O[C@]12[C@@H]4[C@H](O)C(=O)[C@]1(C)C(C3=CC(=O)OC3)CC[C@]21O (stereo not given in full)
0.08 µM

Determine its reported TGI: NC(=S)N1N=C(c2ccc3c(c2)CCC3)CC1c1ccccc1 (stereo not given)
85.7 µM

Determine its reported TGI: CNc1ccc([N+](=O)[O-])cc1C(=O)N1CCC[C@H]1CO
> 100 µM

----------
- Tested on: MALME-3M melanoma
- experiment.notes: NCI tumour cell line growth inhibition, 48 h
measured.endpoint: log10 of TGI (log10 of the value in µM)
All values: log10 TGI [µM].

Consider the following illustrative entries.
compound: Cc1ccc(N=Nc2cc(=O)[nH]c(=O)[nH]2)cc1C
measured.endpoint: log10 of TGI
measured.number: 1.44
--
compound: CC(C)(CN1CCCCC1)C(=O)CC(SCCS(=O)(=O)O)c1ccc(Cl)c(Cl)c1 (stereo not given)
measured.endpoint: log10 of TGI
measured.number: 1.34
--
compound: COc1cccc2c1C(=O)c1c(O)c3c(c(O)c1C2=O)C[C@](O)(C(=O)CO)CC3OC1CC(N)C(OC2CCCCO2)C(C)O1 (stereo not given in full)
measured.endpoint: log10 of TGI
measured.number: -0.15
--
compound: NC(=O)c1ccc(-c2c3ccccc3cc3c2ccc2ccccc23)cc1
measured.endpoint: log10 of TGI
measured.number: 1.73
--
compound: C=C1C(=O)C23C(CC(OC(C)=O)C1[C@@H]2OC(C)=O)C1(C)C(OC(C)=O)CCC(C)(C)C1C[C@@H]3OC(C)=O (stereo not given in full)
measured.endpoint: log10 of TGI
measured.number: 0.48

In the following, a different compound is considered.
Determine its reported log10 of TGI: Cc1cc(C(C)(C)C)c(OCCCN2CCOCC2)c(C(C)(C)C)c1
1.54

----------
# key: entry, value: TGI
- Test system: COLO 205 colon
- experiment.notes: NCI tumour cell line growth inhibition, 48 h

Consider the following illustrative entries.
molecule: CC(Cl)CC(=O)Nc1ccc2c(c1)oc(=O)c1cc(NC(=O)CC(C)Cl)ccc12 (stereo not given)
TGI: > 100 µM
//
molecule: CN(NC(=O)/C(=C/C=C/c1ccccc1)NC(=O)c1ccccc1)C1=C(Cl)C(=O)[N+](c2ccccc2)=CC1
TGI: 33.7 µM

Determine its reported TGI: CC(=O)OCC1OC(O[C@@H]2C[C@H]3C(C)(C)[C@H](OC(C)=O)CC[C@]3(C)[C@H]3CC[C@@H]4[C@]5(CC[C@@]4(C)[C@@]32C)O[C@@H]([C@H](O)C(C)(C)O)C[C@@H]5C)C(O)C(O)C1O (stereo not given in full)
14.3 µM

Determine its reported TGI: CC(C)(C)c1ccc(C(O)(c2ccc(C(C)(C)C)cc2)c2ccc(C(C)(C)C)cc2)cc1
> 100 µM

Determine its reported TGI: CCCC/C(C)=N/NC(N)=S
> 100 µM

Determine its reported TGI: COc1ccc(N2C(=O)CSC2c2cc(OC)c(OC)c(OC)c2)cc1 (stereo not given)
54.1 µM

Determine its reported TGI: CC(C)c1cc2c(O)c(c1)Cc1cc(C(C)C)cc(c1O)Cc1cc(C(C)C)cc(c1O)Cc1cc(C(C)C)cc(c1O)Cc1cc(C(C)C)cc(c1O)Cc1cc(C(C)C)cc(c1O)C2
> 100 µM

Determine its reported TGI: O=C(O)C1C2CC3CC2CC31 (stereo not given)
> 100 µM

Determine its reported TGI: COc1ccc(/C=C/CO)cc1OC
> 100 µM

Determine its reported TGI: COC(=O)C[C@H]1[C@]2(C)C3=C(C)[C@H](c4ccoc4)CC3O[C@@H]2[C@@H]2OC(=O)[C@]3(C)CCC(=O)[C@@]1(C)[C@@H]23 (stereo not given in full)
> 100 µM

Determine its reported TGI: CCOC(=O)C1C2C1C1C(C(=O)OCC)C21 (stereo not given)
> 100 µM

Determine its reported TGI: CN1C(C(=O)Nc2ccccn2)=C(O)c2ccccc2S1(=O)=O
> 100 µM

Determine its reported TGI: COc1cc(Nc2ncc(-c3ccccc3)o2)cc(OC)c1OC
> 25 µM

Determine its reported TGI: NC(=NC1C2CC3CC(C2)CC1C3)Nc1ccc(I)cc1 (stereo not given)
2.64 µM

Determine its reported TGI: O=C(NC(Cc1c[nH]c2ccccc12)C(=O)O)/C(=C/c1ccccc1)NC(=O)c1ccccc1 (stereo not given)
> 100 µM

----------
# key: entry, value: TGI
- Test system: LOX IMVI melanoma
- experiment.notes: NCI tumour cell line growth inhibition, 48 h

Consider the following illustrative entries.
compound: COc1cc(SC)ccc1C(=O)N1CCCC(C)C1 (configuration not stated)
assay.system: LOX IMVI melanoma
TGI: > 100 µM

compound: C[C@@H](CC(O)C(O)C(C)(C)O)C1CCC23CC12CCC1[C@@]2(C)CCC(=O)C(C)(C)C2CC(OC2OC(CO)C(O)C(O)C2O)[C@]13C (some centres not stated)
assay.system: LOX IMVI melanoma
TGI: > 10 µM

compound: O=c1[nH]nc(Cc2ccc([N+](=O)[O-])cc2)[nH]1
assay.system: LOX IMVI melanoma
TGI: > 100 µM

compound: c1ccc(CN(Cc2ccccn2)Cn2cccn2)nc1
assay.system: LOX IMVI melanoma
TGI: > 100 µM

Determine its reported TGI: O=C(O)CCN1C(=O)/C(=C/C(Cl)=C/c2ccccc2)SC1=S
3.04 µM

Determine its reported TGI: Cc1ccc(Nc2ccnc(Nc3cccc(C(N)=O)c3)n2)cc1O
7.22 µM

Determine its reported TGI: CCC[CH2][Ge]([CH2]CCC)([CH2]CCC)[O]C(=O)CCl
3.52 µM

Determine its reported TGI: C[N+](C)(C)c1nc(N)nc2c1ncn2C1OC(CO)C(O)C1O (configuration not stated)
> 100 µM

Determine its reported TGI: Clc1cccc(Cl)c1C1ON=C(c2ccccc2)N1C12CC3CC(CC(C3)C1)C2 (configuration not stated)
63.7 µM

Determine its reported TGI: CCSc1nn(-c2c3ccccc3nc3ccccc23)c(=S)s1
> 100 µM

Determine its reported TGI: CN1C(C(=O)Nc2ccccn2)=C(O)c2ccccc2S1(=O)=O
> 100 µM

Determine its reported TGI: CCOC(=O)c1cc2cc([N+](=O)[O-])ccc2oc1=O
> 100 µM
